# assay-target: CB2 (Homo sapiens)
# Construct: gene CNR2; co-expressed with beta-arrestin 2 fused to the complementary fragment
# Sequence (P34972 whole entry, the tested form may be a part): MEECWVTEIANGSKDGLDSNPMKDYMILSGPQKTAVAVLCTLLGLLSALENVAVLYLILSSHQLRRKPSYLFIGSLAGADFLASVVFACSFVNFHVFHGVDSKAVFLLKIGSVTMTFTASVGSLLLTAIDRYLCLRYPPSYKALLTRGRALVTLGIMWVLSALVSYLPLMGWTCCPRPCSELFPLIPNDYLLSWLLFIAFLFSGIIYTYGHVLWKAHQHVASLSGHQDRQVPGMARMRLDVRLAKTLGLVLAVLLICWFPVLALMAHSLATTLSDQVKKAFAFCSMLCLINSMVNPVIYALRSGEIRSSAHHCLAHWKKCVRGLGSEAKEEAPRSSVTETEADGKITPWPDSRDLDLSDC
# experiment-description: NanoLuc complementation beta-arrestin […] recruitment, live cells
# Type: cell-based
# experimental-context: read-out: CB2 / EC50 (nM) (± 95% CI)
quantity-kind: EC50 (nM)

>>> assay_value("CC(C)[C@H](NC(=O)c1nn(CC2CCCCC2)c2ccccc12)C(N)=O")
1.75
>>> assay_value("COC(=O)[C@@H](NC(=O)c1nn(Cc2ccc(F)cc2)c2ccccc12)C(C)C")
0.77
>>> assay_value("CC(C)[C@H](NC(=O)c1nn(Cc2ccc(F)cc2)c2ccccc12)C(N)=O")
1.6
>>> assay_value("COC(=O)[C@@H](NC(=O)c1nn(CCCCCF)c2ccccc12)C(C)(C)C [compound 3, (S)-5F-MDMB-PINACA]")
1.46
>>> assay_value("CC(C)[C@@H](NC(=O)c1nn(CC2CCCCC2)c2ccccc12)C(N)=O [compound 4, (R)-AB-CHMINACA]")
33.6
>>> assay_value("CC(C)[C@@H](NC(=O)c1nn(Cc2ccc(F)cc2)c2ccccc12)C(N)=O [compound 1, (R)-AB-FUBINACA]")
102
>>> assay_value("COC(=O)[C@H](NC(=O)c1nn(CCCCCF)c2ccccc12)C(C)(C)C [compound 3, (R)-5F-MDMB-PINACA]")
6.87
>>> assay_value("COC(=O)[C@H](NC(=O)c1nn(Cc2ccc(F)cc2)c2ccccc12)C(C)C [compound 2, (R)-AMB-FUBINACA]")
1.19
>>> assay_value("CCCCCn1cc(C(=O)c2cccc3ccccc23)c2ccccc21 [compound 19, JWH-018, reference compound]")
9.71

meta.source: paper PMC6532652
